# experiment notes: NCI Yeast Anticancer Drug Screen. Data for the bub3 strain (AID 167)
# details: S. cerevisiae bub3 mutant strain, at 11.0 µM
This is part of a sample that, as a whole, favours compounds with a hit. Of some 79,000 tested, about 15% had one in any assay. Active and inactive are the calls of the source. No stated cut-off is given here; in the data, active means growth inhibition above about 70%; inactive means the rest.
Write down one outcome, taken from active, inactive

Exercise: Call for entry CN(C)CCC(C(=O)C(Br)Br)(c1ccccc1)c1ccccc1 :
Solution: active

Exercise: Call for entry c1ccc(N=c2nc(N3CCOCC3)ss2)cc1 :
Solution: inactive

Exercise: Call for entry CSc1ccccc1[As](C)C :
Solution: active

---

# experiment notes: NCI Yeast Anticancer Drug Screen. Data for the mgt1 strain (AID 153)
# details: S. cerevisiae mgt1 mutant growth inhibition; at 100.0 µM; active compounds read high
The panel holds about 79,000 compounds, 15% with a hit somewhere; the sample as a whole holds those more often.
observation type: growth inhibition (%)
Numeric only. Scale: %

In plain terms, CC[C@](O)(C(=O)O)c1cc2n(c(=O)c1CO)Cc1cc3ccccc3nc1-2 has a documented growth inhibition of 95

In plain terms, c1cc2c(cc1C1OC[C@H]3[C@@H](c4ccc5c(c4)OCO5)OC[C@@H]13)OCO2 (some centres undefined) has a documented growth inhibition of -5

In plain terms, COc1cc([C@@H]2c3cc4c(cc3C[C@@H]3COC(=O)C32)OCO4)cc(OC)c1O (some centres undefined) has a documented growth inhibition of 93

In plain terms, CC[C@@]1(O)C(=O)OCc2c1cc1n(c2=O)Cc2cc3ccccc3nc2-1 has a documented growth inhibition of 92

In plain terms, Cc1cccc(NC(=O)CBr)c1 has a documented growth inhibition of 99

In plain terms, C[N+](CCCl)(CCCl)Cc1cccc2cccc([N+](=O)[O-])c12 has a documented growth inhibition of 9

In plain terms, CCOP(=O)(CC(C)P(=O)(OCC)OCC)OCC.C[CH2][Sn]([Cl])([Cl])[CH2]C (centres undefined) has a documented growth inhibition of 95

In plain terms, COC1CC(CC2CCC(C)C(C(C)C(=O)O)O2)OC2(OC(C)(C3CCC(C)(C4OC(C5OC(O)(CO)C(C)CC5C)CC4C)O3)CC2C)C1C (centres undefined) has a documented growth inhibition of 98

In plain terms, O=S(=O)(O)c1ccc(Cl)cc1.[Cd] has a documented growth inhibition of 77

---

# experiment notes: NCI Yeast Anticancer Drug Screen. Data for the rad50EPP+ strain (AID 151);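 further: 0% = growth of vehicle-treated control cultures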
# details: S. cerevisiae rad50 mutant strain, at 33.0 µM, active compounds read high
Compounds without any hit were thinned out: in the full panel of roughly 79,000, 15% have a hit.
Would you mind telling me the reported growth inhibition of each entry?
Numeric only. Scale: %

In plain terms, Cc1ccc2c(c1)C1(C)c3cc(C)ccc3SP1S2 (centres undefined) has a documented growth inhibition of 47

In plain terms, CC1(C)N=C(N)N=C(N)N1c1cccc(N)c1.[Sn] has a documented growth inhibition of -5

In plain terms, O=C(O)C1C2C=CC(C2)C1c1ccccc1 (centres undefined) has a documented growth inhibition of -5

In plain terms, COC(COC(=O)N1CCN(C=O)CC1)C1=C(N2CC2)C(=O)C(C)=C(N2CC2)C1=O (centres undefined) has a documented growth inhibition of -8

In plain terms, CCCCCCCCCC[Se]C#N has a documented growth inhibition of 76

In plain terms, COC(=O)c1c(C)ccc2c(O)c3c(cc12)C(=O)c1c2c(cc(O)c1C3=O)C1(C)OC(C)(O2)C(O)C(N(C)C)C1O (centres undefined) has a documented growth inhibition of 74

In plain terms, CCN(CC)CCBr has a documented growth inhibition of 68

In plain terms, Oc1ccc2nc3ccccc3nc2c1 has a documented growth inhibition of 77

In plain terms, CC12CCC(C1)C(C)(C)C2OC(=O)c1ccccc1N (centres undefined) has a documented growth inhibition of 7

In plain terms, Nc1ccc(Cl)cc1C(=O)c1ccccc1 has a documented growth inhibition of 44

In plain terms, CC1=C[C@H]2O[C@@H]3C[C@H]4OC(=O)/C=C\C=C\C(C(C)O)OCC(O)C(C)CC(=O)OC[C@@]2(C[C@@H]1O)[C@]4(C)[C@@]31CO1 (some centres undefined) has a documented growth inhibition of -46

In plain terms, [O-][n+]1c2cccc(O)c2[n+]([O-])c2cccc(O)c21 has a documented growth inhibition of 94

In plain terms, CN(CCc1ccc(Br)cc1)CCN1CCCCC1 has a documented growth inhibition of 0

In plain terms, C/C(=N\NC(N)=O)C(CN1CCOCC1)C(c1ccccc1)c1c(O)c2ccccc2oc1=O (centres undefined) has a documented growth inhibition of -1

In plain terms, Nc1ccccc1C(=O)OCCc1ccccc1 has a documented growth inhibition of 22

In plain terms, COc1cccc2c1C(=O)c1c(O)c3c(c(O)c1C2=O)C[C@@](O)(C(C)=O)C[C@@H]3OC1CC(N)C(OC2CC(O)C(O)C(C)O2)C(C)O1 (some centres undefined) has a documented growth inhibition of 18

In plain terms, CSc1ccccc1[As](C)C has a documented growth inhibition of 98

In plain terms, COc1cc(O)c2c(O)c3c(c4c2c1[C@]1(C4)C(C)=CCCC1(C)C)[C@H](O)[C@@]1(O)CC(=O)C(C(N)=O)=C(O)[C@@]1(O)C3=O has a documented growth inhibition of 96

In plain terms, CC(Cc1ccccc1)N(C)Cc1nc(C2CCC([N+](=O)[O-])O2)no1 (centres undefined) has a documented growth inhibition of 44

---

# experiment notes: NCI Yeast Anticancer Drug Screen. Data for the bub3 strain (AID 167)
# details: S. cerevisiae bub3 mutant strain, at 50.0 µM
About 79,000 compounds went through this panel and 15% of them were active in at least one assay; those are over-represented in the sample as a whole. Calls of active or inactive are those of the source. Rule as the data show it: active = growth inhibition above about 70%; inactive = the rest.
Write down one outcome, taken from active, inactive

Exercise: Call for entry O=C1CN2C(Cl)(Cl)C2(c2ccccc2)c2cc(Cl)ccc2N1CC1CC1 (centres undefined) :
Solution: inactive

Exercise: Call for entry COc1ccc(/C=C(/C)[N+](=O)[O-])cc1 :
Solution: active

Exercise: Call for entry [I][Hg][CH2]C1COCC([CH2][Hg][I])O1 (centres undefined) :
Solution: active

Exercise: Call for entry Cc1cc[n+](C2=C(Nc3ccc(Cl)cc3Cl)C(=O)c3ccccc3C2=O)cc1 :
Solution: inactive

---

# experiment notes: NCI Yeast Anticancer Drug Screen. Data for the sgs1 strain (AID 173);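 further: 0% = growth of vehicle-only control cultures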
# details: S. cerevisiae sgs1 mutant, at 1.2 µM, active compounds read high
# Description: Growth inhibition of yeast strains with defined genetic alterations is measured as a screen for potential anti-cancer activity. Selected strains with alterations in DNA damage repair or cell cycle control were exposed to compounds and growth inhibition was measured relative to vehicle treated controls. The strain used in this assay is sgs1
About 79,000 compounds went through this panel and 15% of them were active in at least one assay; those are over-represented in the sample as a whole.
observation type: growth inhibition (%)
Numeric only. Scale: %

In plain terms, Oc1ccc(Cl)cc1Cc1ccccc1 has a documented growth inhibition of -23

In plain terms, OCC(O)C(O)CO (centres undefined) (tested in a mixture with another compound) has a documented growth inhibition of -1

In plain terms, CCOC(=O)C1C2c3ccccc3C(c3ccccc32)C1C(=O)OCC (centres undefined) has a documented growth inhibition of -9

In plain terms, CC1=C2C(=C[C@@](C)(CO)[C@@H]2O)C(=O)[C@](C)(O)C12CC2 has a documented growth inhibition of 3

In plain terms, CCC(=O)OC1CCn2c1nc1c2C(=O)C(C)=C(N2CC2)C1=O (centres undefined) has a documented growth inhibition of 14

In plain terms, CCN(CC)CCBr has a documented growth inhibition of 0

In plain terms, O=C(COc1ccc(Cl)cc1Cl)NO has a documented growth inhibition of -3

In plain terms, CCS(=O)(=O)[O][Sn]([CH2]C)([CH2]C)[O]S(=O)(=O)CC has a documented growth inhibition of -4

In plain terms, CCOP(=O)(CC(C)P(=O)(OCC)OCC)OCC.C[CH2][Sn]([Cl])([Cl])[CH2]C (centres undefined) has a documented growth inhibition of -8

In plain terms, CSC(=Nc1ccccc1)N(c1ccccc1)c1nc(=[N+](C)C)ss1 has a documented growth inhibition of 3

In plain terms, C/C(=N\N=C(N)N)C(CN1CCOCC1)C(c1ccccc1)c1c(O)c2ccccc2oc1=O (centres undefined) has a documented growth inhibition of -1

In plain terms, O=c1oc2ccccc2c(O)c1C(c1ccc2c(c1)Cc1ccccc1-2)c1c(O)c2ccccc2oc1=O has a documented growth inhibition of 18

In plain terms, CCCCCCCCCC[Se]C#N has a documented growth inhibition of -1

In plain terms, O=[N+]([O-])O.[NH-]C1CCCCC1[NH-].[NH-]C1CCCCC1[NH-].[NH-]C1CCCCC1[NH-].[OH-].[OH-].[OH-].[Pt+4].[Pt+4].[Pt+4] (centres undefined) has a documented growth inhibition of -22

In plain terms, Cn1cnc(N)c1C(=N)[Se] has a documented growth inhibition of 2

In plain terms, O=[N+]([O-])c1cc([As](Br)c2ccc(O)c([N+](=O)[O-])c2)ccc1O has a documented growth inhibition of 33

In plain terms, CC(C)(C)c1cc([N+](=O)[O-])cc([N+](=O)[O-])c1O has a documented growth inhibition of -20

In plain terms, CN(N=O)C(=O)NNC(=O)N(C)N=O has a documented growth inhibition of 11

In plain terms, CS(=O)(=O)OCCN(CCOS(C)(=O)=O)c1ccc(C=O)cc1 has a documented growth inhibition of 15

In plain terms, c1ccc(N=c2nc(N3CCOCC3)ss2)cc1 has a documented growth inhibition of 7

In plain terms, Nc1nc(-c2ccccc2)c(-c2ccccc2)[se]1 has a documented growth inhibition of -18

In plain terms, CC[C@](O)(C(=O)O)c1cc2n(c(=O)c1CO)Cc1cc3ccccc3nc1-2 has a documented growth inhibition of 17

In plain terms, C[C@]12CCc3nonc3C1CC[C@@H]1C2CC[C@]2(C)C(=O)CCC12 (some centres undefined) has a documented growth inhibition of 13

In plain terms, CC(C)CC(NC(=O)C(N)C(C)C)C(=O)NC(CCCCN)C(=O)Nc1ccc(N(CCCl)CCCl)cc1 (centres undefined) has a documented growth inhibition of -4

In plain terms, CSc1ccccc1[As](C)C has a documented growth inhibition of 4

In plain terms, O=C(O)CCCOc1cc(Cl)c(Cl)cc1Cl has a documented growth inhibition of -13

In plain terms, Br[Se]c1ccccn1 has a documented growth inhibition of 0

In plain terms, CC(=O)O/C(=C1\C[C@H]2[C@@H]3CC=C4C[C@@H](OC(C)=O)CC[C@]4(C)[C@H]3CC[C@]2(C)C1=O)C(F)(F)F has a documented growth inhibition of 2

In plain terms, O=C(O)C1C2c3ccccc3C(c3ccccc32)C1C(=O)O (centres undefined) has a documented growth inhibition of -12

In plain terms, Oc1c(Br)cc(Br)cc1Br has a documented growth inhibition of 13

In plain terms, C[N+]1(CCCl)CC[N+](C)(CCCl)CC1 (centres undefined) has a documented growth inhibition of 0

In plain terms, COc1cc(O)c2c(O)c3c(c4c2c1[C@]1(C4)C(C)=CCCC1(C)C)[C@H](O)[C@@]1(O)CC(=O)C(C(N)=O)=C(O)[C@@]1(O)C3=O has a documented growth inhibition of -38

In plain terms, CC1CN=C(Nc2ccccc2)S1 (centres undefined) has a documented growth inhibition of -29

In plain terms, CCOC(=O)C1([Se]c2ccccc2)CCCC1=O (centres undefined) has a documented growth inhibition of 22
